System: Saccharomyces cerevisiae;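 also: PSI is a weighted mean of sequencing reads over stability bins, variants kept only with over 10 reads, mCherry proximal and sfGFP distal, peptide attached via GGGS linker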
Assay: protein stability index of tFT-peptide fusion (C-terminal peptide) (PSI (0-1 scale)); higher = more stable (slower turnover)
Details: genetic background: wild type; temperature: 30 C
Class boundaries, taken from values of protein stability index, are as follows: low class: < 0.2; middle class: ≥ 0.2 and < 0.3; high class: ≥ 0.3

Exam item: assign SYWNSSPKCGNW to the correct category.
high class

Exam item: assign GGGWGGRWGRLC to the correct category.
middle class

Exam item: assign VYLVVLYLRYFA to the correct category.
low class

Exam item: assign FGVVRVSIPVGV to the correct category.
middle class

Exam item: assign VVFLWRCRLLLG to the correct category.
low class

Exam item: assign RGSLLRWFLAAQ to the correct category.
high class

Exam item: assign YLLTAFLSAFNP to the correct category.
high class

Exam item: assign LISRGNRALFCI to the correct category.
middle class

Exam item: assign INILVIWRKNHV to the correct category.
low class

Exam item: assign FDWLFFFVNFVV to the correct category.
low class

Exam item: assign RPPPYSPRLFHN to the correct category.
low class

Exam item: assign NYVFRIIIVLDA to the correct category.
middle class

Exam item: assign APEWGGGDEWWG to the correct category.
high class

Exam item: assign LWRRSLLLLRCC to the correct category.
low class

Exam item: assign GYAFPPPHRVRT to the correct category.
high class

Exam item: assign SFPPLPPLPLPP to the correct category.
high class

Exam item: assign LCLLIHFWISHL to the correct category.
low class

Exam item: assign RWCLELLWITSC to the correct category.
low class

Exam item: assign PALYLSLWFLFP to the correct category.
high class

Exam item: assign PLLVVPVPRALY to the correct category.
middle class

Exam item: assign TLVFPRFLFLVV to the correct category.
high class

Exam item: assign FLFFMGVGVVLY to the correct category.
high class

Exam item: assign CFYSRTIILEHC to the correct category.
middle class

The reported measurements were obtained from the supplement of paper PMC10724198.
